Reference source: paper PMC10397247

Target: T1, 4H2859-bN
T1 chain: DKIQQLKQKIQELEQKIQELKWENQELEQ
Experiment: two-hybrid library CCNG1;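 note: natural log of median RNA to DNA barcode read ratio; higher means stronger binding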
reported_endpoint: interaction score

[1] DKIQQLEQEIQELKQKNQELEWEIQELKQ [4H2162-bN]
[2] DKIQQLKQEIQELEQENQELKWEIQELEQ [4H2585-bN]
[3] DEIQQLEQENQELKQKIQELKWENQELEQ [4H235-bN]
[4] DEIQQLEQKIQELEQEIQELEWKNQELKQ [4H264-bN]
## Task Highest to lowest interaction score: rank the entries shown above. Hello, could you send the labels back in the order asked? Thank you.
## Result 4, 1, 2, 3
